tested on: Fallopia convolvulus; experiment: Post-emergence herbicidal activity against Fallopia convolvulus compound treated as foliar application measured after 2 weeks; format: functional
Please go through the items and note down their GR80.
API: value field is a number in ppm; no unit string.

q: Need GR80, item COc1ncc(F)c2nc(NS(=O)(=O)c3c(Cl)cccc3Cl)nn12
a: 19

q: Recorded GR80 for COc1nc(F)cc2nc(NS(=O)(=O)c3c(Cl)cccc3Cl)nn12 , please?
a: 62

q: Which measured GR80 value corresponds to COc1cnc(OC)n2nc(NS(=O)(=O)c3ccccc3C(F)(F)F)nc12 ?
a: 13

q: Data request, read-out GR80, for COc1cnc(OC)n2nc(NS(=O)(=O)c3c(Cl)cccc3Cl)nc12
a: 2

q: What value of GR80 has been recorded for this entry: COc1nccc2nc(NS(=O)(=O)c3c(Cl)cccc3Cl)nn12
a: 475

q: Fill in: GR80 of COc1cnc(OC)n2nc(NS(=O)(=O)c3cc(Cl)cc(Cl)c3)nc12 is ___
a: 126

q: Could you tell me which GR80 is on file for CCOc1cccc(C(F)(F)F)c1S(=O)(=O)Nc1nc2c(OC)cnc(OC)n2n1 ?
a: 2

q: GET /values?readout=GR80&item= COc1cnc(OC)n2nc(NS(=O)(=O)c3c(OCCF)cccc3C(F)(F)F)nc12
a: 6

q: Which GR80 is reported for this molecule? CCOc1cnc(OC)n2nc(NS(=O)(=O)c3c(Cl)cccc3Cl)nc12
a: 216

q: What does the record list as GR80 for COc1ncc(Cl)c2nc(NS(=O)(=O)c3c(Cl)cccc3Cl)nn12 ?
a: 1

q: Field request: GR80 | item: COc1cnc(OC)n2nc(NS(=O)(=O)c3cc(Cl)ccc3Cl)nc12
a: 19

q: Fill in the blank: the reported GR80 of COc1cccc(OC)c1S(=O)(=O)Nc1nc2c(OC)cnc(OC)n2n1 is ____.
a: 0.5

q: Bench note: what GR80 did COc1cnc(OC)n2nc(NS(=O)(=O)c3c(OCCCF)cccc3C(F)(F)F)nc12 show?
a: 15

q: Can you look up the measured GR80 of COc1ccccc1S(=O)(=O)Nc1nc2c(OC)cnc(OC)n2n1 for me?
a: 1

* * *

Please respond with reported GR80 for every item in the list.
system: Helianthus; assay: Post-emergence herbicidal activity against Helianthus spp. compound treated as foliar application measured after 2 weeks; type: functional
Could you give me the number in ppm? Just the number is fine.

q: GR80 lookup needed for COc1cnc(OC)n2nc(NS(=O)(=O)c3c(OCCCF)cccc3C(F)(F)F)nc12 , thanks.
a: 15

q: Value lookup for GR80; key = COc1ccccc1S(=O)(=O)Nc1nc2c(OC)cnc(OC)n2n1
a: 1

q: Looking for the measured GR80 of COc1cccc(OC)c1S(=O)(=O)Nc1nc2c(OC)cnc(OC)n2n1 , can you help?
a: 0.5

q: Give the measured GR80 of COc1nccc2nc(NS(=O)(=O)c3c(Cl)cccc3Cl)nn12 .
a: 475

q: Please look up its GR80: COc1nc(F)cc2nc(NS(=O)(=O)c3c(Cl)cccc3Cl)nn12
a: 62

* * *

test system: Cyperus difformis; assay: Post-emergence herbicidal activity against three-leaf stage Cyperus difformis under green-house condition by water injection treatment method; assay type: functional
REPORTED ENDPOINT: GR80
Number plus unit, in that order.

q: Write down the reported GR80 of COc1cnc(OC)n2nc(NS(=O)(=O)c3c(OCCF)cccc3C(F)(F)F)nc12 , test system: Cyperus difformis.
a: 8 gAi/ha

q: Entry COc1cnc(OC)n2nc(NS(=O)(=O)c3c(OCC(F)F)cccc3C(F)(F)F)nc12 [PENOXSULAM] , system Cyperus difformis: what GR80 was measured?
a: 14 gAi/ha

q: Reported GR80 for Cyperus difformis, given COc1cnc(OC)n2nc(NS(=O)(=O)c3c(OCC(F)(F)F)cccc3C(F)(F)F)nc12 ?
a: 36 gAi/ha

q: Query the reported GR80 for Cyperus difformis; item: COc1cnc(OC)n2nc(NS(=O)(=O)c3c(OC(CF)CF)cccc3C(F)(F)F)nc12
a: 31 gAi/ha

* * *

test system: Oryza sativa; test: Phytotoxicity against Oryza sativa (rice); assay type: organism-based; conditions: in vivo
REPORTED ENDPOINT: log10(GR20) (log10 of the value in ppm)
Log10 applied to GR20; unit prior to transform: ppm.

q: Look up log10(GR20) for this compound: COc1ncc(Cl)c2nc(NS(=O)(=O)c3c(Cl)cccc3Cl)nn12
a: 0.60

q: # lookup: log10(GR20) of CCOc1cccc(C(F)(F)F)c1S(=O)(=O)Nc1nc2c(OC)cnc(OC)n2n1
a: 2.40

q: # get_value(readout='log10(GR20)', item= COc1nc(F)cc2nc(NS(=O)(=O)c3c(Cl)cccc3Cl)nn12 )
a: 0.90

q: Entry COc1cnc(OC)n2nc(NS(=O)(=O)c3c(OCCF)cccc3C(F)(F)F)nc12 : reported log10(GR20) = ?
a: 2.40

q: Value lookup for log10(GR20); key = COc1nccc2nc(NS(=O)(=O)c3c(Cl)cccc3Cl)nn12
a: 2.70

q: Quick one: log10(GR20) for COc1ncc(C)c2nc(NS(=O)(=O)c3c(Cl)cccc3Cl)nn12 ?
a: 2.40

q: Field request: log10(GR20) | item: COc1cnc(OC)n2nc(NS(=O)(=O)c3cc(Cl)cc(Cl)c3)nc12
a: 1.79

q: If you can, please state the reported log10(GR20) value of COc1cnc(OC)n2nc(NS(=O)(=O)c3c(Cl)cccc3Cl)nc12 .
a: 0.90

q: Using the record for CCOc1cnc(OC)n2nc(NS(=O)(=O)c3c(Cl)cccc3Cl)nc12 , report its log10(GR20).
a: 2.40

q: What does the record list as log10(GR20) for COc1cccc(C(F)(F)F)c1S(=O)(=O)Nc1nc2c(OC)cnc(OC)n2n1 ?
a: 0.30

* * *

test system: Alopecurus; assay: Post-emergence herbicidal activity against Alopecurus spp. compound treated as foliar application measured after 2 weeks; format: functional
Assign 1 to entries whose GR80 meets or exceeds 200 ppm; assign 0 to the rest.

q: GR80 >= 200 ppm for COc1cccc(OC)c1S(=O)(=O)Nc1nc2c(OC)cnc(OC)n2n1 ?
a: 0

q: Hi, just wondering whether COc1cnc(OC)n2nc(NS(=O)(=O)c3c(OCCCF)cccc3C(F)(F)F)nc12 shows GR80 of 200 ppm or higher.
a: 1

q: Is it the case that COc1nccc2nc(NS(=O)(=O)c3c(Cl)cccc3Cl)nn12 has GR80 reaching or exceeding 200 ppm?
a: 1

q: Is GR80 at least 200 ppm? Consider COc1cnc(OC)n2nc(NS(=O)(=O)c3c(Cl)cccc3Cl)nc12
a: 0

q: Reported GR80 reaches at least 200 ppm for COc1ccccc1S(=O)(=O)Nc1nc2c(OC)cnc(OC)n2n1 ?
a: 0

q: Check if GR80 >= 200 ppm (inclusive). Item: COc1cnc(OC)n2nc(NS(=O)(=O)c3ccccc3C(F)(F)F)nc12
a: 1

q: GR80 >= 200 ppm for COc1cnc(OC)n2nc(NS(=O)(=O)c3cc(Cl)cc(Cl)c3)nc12 ?
a: 1

q: Could you tell me if the measured GR80 of COc1cnc(OC)n2nc(NS(=O)(=O)c3c(OCCF)cccc3C(F)(F)F)nc12 reaches 200 ppm or more?
a: 0

q: Please check the record CCOc1cccc(C(F)(F)F)c1S(=O)(=O)Nc1nc2c(OC)cnc(OC)n2n1 and state if its GR80 is at or above 200 ppm.
a: 0

q: Check the entry COc1ncc(Cl)c2nc(NS(=O)(=O)c3c(Cl)cccc3Cl)nn12 : does GR80 equal or exceed 200 ppm?
a: 0

q: Determine whether this molecule has GR80 no lower than 200 ppm: COc1ncc(C)c2nc(NS(=O)(=O)c3c(Cl)cccc3Cl)nn12
a: 1

q: Identify whether the reported GR80 of the following molecule is 200 ppm or greater: COc1cc2nc(NS(=O)(=O)c3c(Cl)cccc3Cl)nn2c(OC)n1
a: 1

q: Is GR80 at least 200 ppm? Consider CCOc1cnc(OC)n2nc(NS(=O)(=O)c3c(Cl)cccc3Cl)nc12
a: 1

q: Quick check: does COc1cnc(OC)n2nc(NS(=O)(=O)c3cc(Cl)ccc3Cl)nc12 have GR80 greater than or equal to 200 ppm?
a: 1

q: # check: GR80 of COc1nc(F)cc2nc(NS(=O)(=O)c3c(Cl)cccc3Cl)nn12 is greater than or equal to 200 ppm
a: 0

q: Can COc1cccc(C(F)(F)F)c1S(=O)(=O)Nc1nc2c(OC)cnc(OC)n2n1 be said to have GR80 at or above 200 ppm?
a: 0

* * *

test system: Amaranthus retroflexus; test: Post-emergence herbicidal activity against Amaranthus retroflexus compound treated as foliar application measured after 2 weeks; type: functional
Labelling: GR80 reported below 20 ppm becomes y; at or above becomes n.

q: Threshold test, GR80 < 20 ppm: COc1cnc(OC)n2nc(NS(=O)(=O)c3ccccc3C(F)(F)F)nc12
a: y

q: Threshold test, GR80 < 20 ppm: COc1nccc2nc(NS(=O)(=O)c3c(Cl)cccc3Cl)nn12
a: n

q: In the record for COc1ccccc1S(=O)(=O)Nc1nc2c(OC)cnc(OC)n2n1 , is GR80 less than 20 ppm?
a: y

q: Regarding COc1cnc(OC)n2nc(NS(=O)(=O)c3c(OCCF)cccc3C(F)(F)F)nc12 , kindly confirm whether its GR80 is beneath 20 ppm.
a: y

q: is_below(GR80, 20 ppm) for CCOc1cnc(OC)n2nc(NS(=O)(=O)c3c(Cl)cccc3Cl)nc12 ?
a: n

q: Consider the compound COc1cnc(OC)n2nc(NS(=O)(=O)c3c(OCCCF)cccc3C(F)(F)F)nc12 . Is its GR80 strictly less than 20 ppm?
a: y

q: Hello, I'm reviewing records and need to know if GR80 of COc1ncc(F)c2nc(NS(=O)(=O)c3c(Cl)cccc3Cl)nn12 is below 20 ppm. Could you check?
a: y

q: Hi there! Is GR80 for COc1ncc(C)c2nc(NS(=O)(=O)c3c(Cl)cccc3Cl)nn12 below 20 ppm, do you know?
a: y

q: # strict comparison: is reported GR80 < 20 ppm? input = COc1cccc(OC)c1S(=O)(=O)Nc1nc2c(OC)cnc(OC)n2n1
a: y

q: Find out if reported GR80 for COc1ncc(Cl)c2nc(NS(=O)(=O)c3c(Cl)cccc3Cl)nn12 is less than 20 ppm
a: y

q: In plain terms, does COc1nc(F)cc2nc(NS(=O)(=O)c3c(Cl)cccc3Cl)nn12 come in under 20 ppm for GR80?
a: n

q: In plain terms, does COc1cc2nc(NS(=O)(=O)c3c(Cl)cccc3Cl)nn2c(OC)n1 come in under 20 ppm for GR80?
a: n

q: is_below(GR80, 20 ppm) for COc1cnc(OC)n2nc(NS(=O)(=O)c3cc(Cl)cc(Cl)c3)nc12 ?
a: n

q: Strictly below 20 ppm: is that where GR80 of COc1cnc(OC)n2nc(NS(=O)(=O)c3cc(Cl)ccc3Cl)nc12 sits?
a: y

q: Threshold test, GR80 < 20 ppm: CCOc1cccc(C(F)(F)F)c1S(=O)(=O)Nc1nc2c(OC)cnc(OC)n2n1
a: y

q: Determine whether this compound shows GR80 lower than 20 ppm (ties excluded): COc1cccc(C(F)(F)F)c1S(=O)(=O)Nc1nc2c(OC)cnc(OC)n2n1
a: y

q: Answer whether the compound COc1cnc(OC)n2nc(NS(=O)(=O)c3c(Cl)cccc3Cl)nc12 has GR80 strictly less than 20 ppm
a: y
